Tested on: Hs-578T
assay: NCI tumour cell line growth inhibition, 48 h
Calls of active or inactive are those of the source. Rule as the data show it: active = GI50 up to about 1.1 µM and inactive = higher.
Measured GI50, listed per entry for reference.

These solved cases illustrate the format of a correct answer.
What value of GI50 has been recorded for this entry: CN1/C(=C\N=O)C(C)(C)N(O)C1(C)C > 100 µM (inactive)

What value of GI50 has been recorded for this entry: CC[C@@H](CCCCC1CC[C@H]2CC(=O)C[C@@H]12)OC (some centres undefined) > 100 µM (inactive)

// GI50 lookup, key: c1ccc2c(C3CCN(CCN4CCOCC4)C3)c[nH]c2c1 (centres undefined) > 100 µM (inactive)

Now consider the entry below.
Need GI50, item O=C(Cn1c2ccc(Br)cc2c2nc3ccccc3nc21)NNC(=O)NC1CCCCC1 24.4 µM (inactive)

----------
Tested on: U-251
assay: NCI tumour cell line growth inhibition, 48 h
Active and inactive are the calls of the source. Cut-off read from the data, not from the text of the source: active = GI50 up to about 1.1 µM and inactive = higher.
assay.metric: GI50

Form field: reported GI50 of O=C(Cn1c2ccc(Br)cc2c2nc3ccccc3nc21)NNC(=O)NC1CCCCC1 30.1 µM (inactive)

Reported GI50, compound C=C1C(=O)O[C@H]2C/C(C=O)=C\[C@H]3O[C@H]3/C(COC(=O)C(C)C)=C/CC12 (stereo not given in full) : ____ 7.26 µM (inactive)

Consider the compound Cc1cc(N(CCC#N)CCC#N)ccc1C(/N=N/c1ccc(Cl)cc1)=N\NC(=O)c1ccccc1 and give its measured GI50. 40.7 µM (inactive)

Value lookup for GI50; key = O=C(NO)C(=O)Nc1ccc(Cl)cc1[N+](=O)[O-] > 100 µM (inactive)

Now for the compound whose GI50 we want.
Given Oc1cccc(C2SCc3nc4ccccc4n32)c1 (stereo not given) , state its recorded GI50. 84.5 µM (inactive)

----------
Test system: HT-29
assay: NCI tumour cell line growth inhibition, 48 h
Calls of active or inactive are those of the source. Rule as the data show it: active = GI50 up to about 1.1 µM and inactive = higher.
assay.metric: GI50

What value of GI50 has been reported for the following compound? COc1ccc(/C(Cl)=C(\C=O)c2ccccc2)cc1OC 28.1 µM (inactive)

Could you tell me which GI50 is on file for CC1=C(NC(=O)C(=O)NNC(=O)c2ccncc2)C(=O)c2ccccc2C1=O ? 15.5 µM (inactive)

What does the data say about its GI50? Entry: O=c1c2ccccc2nc(-c2cc3c(cc2Cl)Sc2nccn2S3(=O)=O)n1-c1ccccc1 40.5 µM (inactive)

Field request: GI50 | item: CC(=O)C1CC2(c3ccccc3)C(=O)c3ccccc3N2O1 (stereo not drawn) > 100 µM (inactive)

Reported GI50, compound COC(=O)C1C(C(=O)OC)N(Cc2ccccc2)C(=O)N1Cc1ccccc1 (stereo not drawn) : ____ > 100 µM (inactive)

Data request, read-out GI50, for COC(O)C(=O)c1c2c(cc3c1CCC3)CCCC2 (stereo not drawn) 2.69 µM (inactive)

----------
Tested on: OVCAR-8
assay: NCI tumour cell line growth inhibition, 48 h
Activity calls are given as the source filed them. Rule as the data show it: active = GI50 up to about 1.1 µM and inactive = higher.
Please reply with one of these outcomes: active, inactive

// param item: Cn1c(CO)ccc1-c1ccc(-c2ccc(CO)[se]2)[se]1 ; yields the recorded call inactive

***
For this compound, state the assay outcome: CC(=O)OC1(C#N)CC2OC1C1C2N=NN1C(=O)OC(C)(C)C (stereo not drawn) inactive

----------
Below: a set of entries, each annotated with reported GI50.
Tested on: HCC 2998
assay: NCI tumour cell line growth inhibition, 48 h
Calls of active or inactive are those of the source. No stated cut-off is given here; in the data, active = GI50 up to about 1.1 µM and inactive = higher.

Consider the reported GI50 for these compounds:
So what's the measured GI50 for this one? O=S(=O)(Cc1nc2ccccc2s1)c1nc2ccccc2s1 16.4 µM (inactive)

Data request, read-out GI50, for O=[N+]([O-])c1cnc(N(CCO)CCO)s1 > 100 µM (inactive)

Quick one: GI50 for Sc1nc2c(c(-c3nc(S)nc4c3CCCCCCCCCC4)n1)CCCCCCCCCC2 ? > 100 µM (inactive)

# lookup: GI50 of Cc1ccc(C2OC(COCc3ccc(Cl)cc3)C(OCc3ccc(Cl)cc3)C2O)cc1 (configuration not stated) 19.3 µM (inactive)

GET /values?readout=GI50&item= C=C1C(=O)O[C@@H]2/C=C(/C)[C@@H](OC(C)=O)C[C@@H](O)/C(C)=C\[C@@H](OC(=O)[C@]3(C)O[C@@H]3C)[C@@H]12 18.2 µM (inactive)

***
Data request, read-out GI50, for CN(C)c1ccc(/C=C(/NC(=O)c2ccccc2)c2nc3cc(Cl)ccc3[nH]2)cc1 18.5 µM (inactive)

Using the record for CC(=O)OC(C)(C)/C=C/C(=O)[C@](C)(O)[C@H]1[C@H](O)C[C@@]2(C)[C@@H]3CC=C4[C@@H](C=C(O)C(=O)C4(C)C)[C@]3(C)C(=O)C[C@]12C [CUCURBITACIN E] , report its GI50. 0.0501 µM (active)
